In this section, each of the compounds is paired with its reported GI50.
# Test system: T47D
# PROTOCOL_DESCRIPTION: NCI tumour cell line growth inhibition, 48 h
Calls of active or inactive are those of the source. No stated cut-off is given here; in the data, active = GI50 up to about 1.1 µM and inactive = higher.

C=CC(Cl)(CBr)CCC(Br)C(C)(C)Cl (stereo not drawn)	16.6 µM (inactive)
COc1ccc(C2SCC(=O)N2NC(=O)C(C)Oc2ccc(Cl)cc2Cl)cc1 (stereo not drawn)	28.4 µM (inactive)

Please report GI50 for the following compound: C/C1=C/C2=CC(C)C[C@@H]2C(=O)[C@]2(C)C(=O)CC(C)(C)[C@H]2CC1=O (stereo partly drawn)
> 50 µM (inactive)

###

# System: SK-MEL-5
# PROTOCOL_DESCRIPTION: NCI tumour cell line growth inhibition, 48 h
Calls of active or inactive are those of the source. No stated cut-off is given here; in the data, active = GI50 up to about 1.1 µM and inactive = higher. Peptide text beside a SMILES is read from it. * marks the point of attachment. X27 = Clc1c(Cl)c(Cl)c(O*)c(Cl)c1Cl; Boc = CC(C)(C)OC(=O)*; OBn = c1ccc(CO*)cc1; Bn = c1ccc(C*)cc1
Classes to choose from: active, inactive

CC(C)CC(NC(=O)C(CCC(=O)OCc1ccccc1)NC(=O)OC(C)(C)C)C(=O)NC(COCc1ccccc1)C(=O)NC(Cc1ccccc1)C(=O)Oc1c(Cl)c(Cl)c(Cl)c(Cl)c1Cl (centres undefined) (Boc-E(OBn)LS(Bn)F-X27; configuration not given here)	inactive

For S=C(N/N=C(/c1ccccc1)c1ccccn1)Nc1ccccc1Cl , what call appears in the results of this test?
active

What was the test verdict on O=C(OC[C@H]1C[C@H]2C(=O)OCCC[C@H]2O1)c1ccccc1 ?
inactive

Hey, what did the test say about c1c[nH]c(-c2ccc(-c3ccc[nH]3)c3nsnc23)c1 ?
inactive

Give the logged outcome of this assay for the following compound: COc1cc(N(Cc2ccc3oc(=O)c(-c4ccccc4)nc3c2)Cc2ccc3oc(=O)c(-c4ccccc4)nc3c2)cc(OC)c1OC
inactive

Could you kindly confirm the outcome this assay logged for COC(=O)c1sc2c(c1C(=O)OC)/C(=N/C(C)(C)C)S/C2=N\C(C)(C)C ?
inactive

Dear all, I need the recorded test outcome for Nc1nc2c(ncn2CCOC(c2ccccc2)P(=O)(O)O)c(=O)[nH]1 (centres undefined) , thank you.
inactive

Record request — test call for O=c1[nH]c2nc[nH]c2c(=O)n1C1CCCCC1
inactive

Fill in: this test's call for O=C(CCc1nnc(S)[nH]1)Nc1cc(Cl)ccc1Cl is ___
inactive
